- tested_system: ~100 representative kinases (Homo sapiens, UniProt P21802)
- Construct: Recombinant protein kinase domains with a concentration of 2 μM
- Sequence (P21802 22-821): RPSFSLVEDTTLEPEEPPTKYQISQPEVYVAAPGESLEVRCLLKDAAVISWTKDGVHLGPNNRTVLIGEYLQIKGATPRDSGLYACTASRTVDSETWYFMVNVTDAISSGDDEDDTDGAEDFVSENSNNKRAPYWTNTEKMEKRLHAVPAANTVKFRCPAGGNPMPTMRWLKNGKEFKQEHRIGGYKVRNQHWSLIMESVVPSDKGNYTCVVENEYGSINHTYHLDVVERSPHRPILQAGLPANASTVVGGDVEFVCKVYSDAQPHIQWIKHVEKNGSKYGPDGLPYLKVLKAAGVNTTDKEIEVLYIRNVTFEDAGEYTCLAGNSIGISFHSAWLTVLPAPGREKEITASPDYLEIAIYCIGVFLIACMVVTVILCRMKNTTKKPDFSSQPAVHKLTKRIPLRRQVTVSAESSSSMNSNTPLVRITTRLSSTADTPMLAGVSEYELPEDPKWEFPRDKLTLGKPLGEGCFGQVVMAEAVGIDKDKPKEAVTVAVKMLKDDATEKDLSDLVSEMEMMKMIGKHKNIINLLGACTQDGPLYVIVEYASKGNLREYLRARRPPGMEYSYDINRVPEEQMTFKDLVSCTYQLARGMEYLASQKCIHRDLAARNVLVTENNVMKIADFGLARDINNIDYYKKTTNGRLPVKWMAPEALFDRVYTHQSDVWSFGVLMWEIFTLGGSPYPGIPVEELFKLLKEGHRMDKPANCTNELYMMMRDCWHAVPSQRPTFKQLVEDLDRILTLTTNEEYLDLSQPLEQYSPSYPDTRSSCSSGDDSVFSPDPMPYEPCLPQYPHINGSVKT
- experimental_protocol: DSF 100 kinase selectivity screen;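 note: compound tested at 20 µM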
- Assay type: binding
- conditions_used: protein FGFR2; average of three replicates
- Procedure: Recombinant protein kinase domains with a concentration of 2 μM were mixed with a 20 μM compound solution in dimethyl sulfoxide (DMSO), 20 mM Hepes (pH 7.5), and 500 mM NaCl. SYPRO Orange (5000×, Invitrogen) was added as a fluorescence probe (1μl/ml). Subsequently, temperature-dependent protein unfolding profiles were measured using the QuantStudio 5 realtime PCR machine (Thermo Fisher Scientific, Waltham, MA, USA). […] The temperature was raised with a step rate of 3°C/min. […]
observable: dTm

Observe how each entry below is paired with its result.
| molecule | endpoint_result |
| --- | --- |
| CC(=O)N1CCN(c2nc(Cl)nc3[nH]cc(-c4cccc(NC(=O)Nc5cc(C(C)(C)C)nn5-c5ccc(C)cc5)c4)c23)CC1 [Compound 31] | -0.09 K |
| O=C(Nc1cccc(-c2c[nH]c3ncnc(N4CCOCC4)c23)c1)C1(C(=O)Nc2ccc(F)c(Br)c2)CC1 [Compound 19] | 4.16 K |
| Cc1ccc(-n2nc(C(C)(C)C)cc2NC(=O)Nc2cccc(-c3c[nH]c4ncnc(N5CCOCC5)c34)c2)cc1 [Compound 29] | -0.19 K |
| COc1cc(S(C)(=O)=O)ccc1Nc1nc(N(C)C)c2c(Cl)c[nH]c2n1 [Compound 37] | -0.14 K |
| C[C@@H]1CN(c2cc(-c3n[nH]c4ccc(OC5(C)CC5)cc34)ncn2)C[C@H](C)O1 [MLi2] | -0.06 K |

In: Need dTm of O=C(Nc1ccc(F)cc1)C1(C(=O)Nc2cccc(-c3c[nH]c4ncnc(N5CCOCC5)c34)c2)CC1 [Compound 2] , thanks.
Out: 2.43 K

In: Item Cn1cc(-c2c[nH]c3ncnc(N4CCOCC4)c23)cc1C#N [PFE-360] has what recorded dTm?
Out: 0.89 K

In: Fill in: dTm of Cc1ccc(C(=O)Nc2ccc(CN3CCN(C)CC3)c(C(F)(F)F)c2)cc1C#Cc1cnc2[nH]ncc2c1 [GZD-824, reference compound] is ___
Out: 13.32 K

In: Entry Cc1cc(NC(=O)C2(C(=O)Nc3cccc(-c4c[nH]c5ncnc(N6CCOCC6)c45)c3)CC2)ccc1F [Compound 20] : reported dTm = ?
Out: 4.17 K

* * *

- tested_system: ~100 representative kinases (Homo sapiens)
- Construct: Recombinant protein kinase domains with a concentration of 2 μM
- experimental_protocol: DSF 100 kinase selectivity screen;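 note: compound tested at 20 µM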
- Assay type: binding
- conditions_used: protein MAPK10; average of three replicates
Would you mind classing the entries by dTm? Ranges: bottom: < 0.7 K; middle: ≥ 0.7 K and < 4 K; top: ≥ 4 K

As a guide, the following entries are already answered.
| compound | classification |
| --- | --- |
| CCNc1nc(Nc2cc(F)c(C(=O)N3CCOCC3)cc2OC)ncc1C(F)(F)F | bottom |
| O=C(Nc1cc(F)cc(Br)c1)C1(C(=O)Nc2cccc(-c3c[nH]c4ncnc(N5CCOCC5)c34)c2)CC1 | top |
| O=C(Nc1ccccc1)C1(C(=O)Nc2cccc(-c3c[nH]c4ncnc(N5CCOCC5)c34)c2)CC1 | middle |

In: Into which category would you place COc1cc(S(C)(=O)=O)ccc1Nc1nc(N(C)C)c2c(Cl)c[nH]c2n1 ?
Out: middle

In: Band of COc1ccc(NC(=O)C2(C(=O)Nc3cccc(-c4c[nH]c5ncnc(N6CCOCC6)c45)c3)CC2)cc1 ?
Out: bottom

In: Place this compound in its band: Cc1cc(NC(=O)C2(C(=O)Nc3cccc(-c4c[nH]c5ncnc(N6CCOCC6)c45)c3)CC2)ccc1F
Out: bottom

In: Consider O=C(Nc1cccc(-c2c[nH]c3ncnc(N4CCOCC4)c23)c1)c1cccn(-c2ccc(F)cc2)c1=O . To which dTm class does it belong?
Out: top

In: Band for the recorded dTm of COc1cc(C(=O)N2CCOCC2)c(F)cc1Nc1nc(N(C)C)c2c(Cl)c[nH]c2n1 ?
Out: top

In: Where would CC(=O)N1CCN(c2nc(Cl)nc3[nH]cc(-c4cccc(NC(=O)Nc5cc(C(C)(C)C)nn5-c5ccc(C)cc5)c4)c23)CC1 land among the classes by reported dTm?
Out: middle

In: Band of CNC(=O)c1cc(Oc2ccc(NC(=O)Nc3cc(C(C)(C)C)nn3-c3ccc4ncccc4c3)c(F)c2)ccn1 [Rebastinib, reference compound] ?
Out: middle

In: Hi, small favor: classify CCc1ccc(NC(=O)C2(C(=O)Nc3cccc(-c4c[nH]c5ncnc(N6CCOCC6)c45)c3)CC2)cc1 by its dTm when you get a moment.
Out: bottom

In: Where would Cn1cc(-c2c[nH]c3ncnc(N4CCOCC4)c23)cc1C#N land among the classes by reported dTm?
Out: bottom

In: Bin this entry: O=C(Nc1cccc(-c2c[nH]c3ncnc(N4CCOCC4)c23)c1)C1(C(=O)Nc2ccc(F)c(Br)c2)CC1
Out: top

In: // return the class label for CC(C)(C)c1cc(NC(=O)Nc2cccc(-c3c[nH]c4ncnc(N5CCOCC5)c34)c2)n(-c2ccc3ncccc3c2)n1
Out: top

In: Exam item: assign Cc1ccc(-n2nc(C(C)(C)C)cc2NC(=O)Nc2cccc(-c3c[nH]c4ncnc(N5CCOCC5)c34)c2)cc1 to the correct category.
Out: middle

* * *

- tested_system: ~100 representative kinases (Homo sapiens, UniProt Q99683)
- Construct: Recombinant protein kinase domains with a concentration of 2 μM
- Sequence (Q99683 whole entry, the tested form may be a part): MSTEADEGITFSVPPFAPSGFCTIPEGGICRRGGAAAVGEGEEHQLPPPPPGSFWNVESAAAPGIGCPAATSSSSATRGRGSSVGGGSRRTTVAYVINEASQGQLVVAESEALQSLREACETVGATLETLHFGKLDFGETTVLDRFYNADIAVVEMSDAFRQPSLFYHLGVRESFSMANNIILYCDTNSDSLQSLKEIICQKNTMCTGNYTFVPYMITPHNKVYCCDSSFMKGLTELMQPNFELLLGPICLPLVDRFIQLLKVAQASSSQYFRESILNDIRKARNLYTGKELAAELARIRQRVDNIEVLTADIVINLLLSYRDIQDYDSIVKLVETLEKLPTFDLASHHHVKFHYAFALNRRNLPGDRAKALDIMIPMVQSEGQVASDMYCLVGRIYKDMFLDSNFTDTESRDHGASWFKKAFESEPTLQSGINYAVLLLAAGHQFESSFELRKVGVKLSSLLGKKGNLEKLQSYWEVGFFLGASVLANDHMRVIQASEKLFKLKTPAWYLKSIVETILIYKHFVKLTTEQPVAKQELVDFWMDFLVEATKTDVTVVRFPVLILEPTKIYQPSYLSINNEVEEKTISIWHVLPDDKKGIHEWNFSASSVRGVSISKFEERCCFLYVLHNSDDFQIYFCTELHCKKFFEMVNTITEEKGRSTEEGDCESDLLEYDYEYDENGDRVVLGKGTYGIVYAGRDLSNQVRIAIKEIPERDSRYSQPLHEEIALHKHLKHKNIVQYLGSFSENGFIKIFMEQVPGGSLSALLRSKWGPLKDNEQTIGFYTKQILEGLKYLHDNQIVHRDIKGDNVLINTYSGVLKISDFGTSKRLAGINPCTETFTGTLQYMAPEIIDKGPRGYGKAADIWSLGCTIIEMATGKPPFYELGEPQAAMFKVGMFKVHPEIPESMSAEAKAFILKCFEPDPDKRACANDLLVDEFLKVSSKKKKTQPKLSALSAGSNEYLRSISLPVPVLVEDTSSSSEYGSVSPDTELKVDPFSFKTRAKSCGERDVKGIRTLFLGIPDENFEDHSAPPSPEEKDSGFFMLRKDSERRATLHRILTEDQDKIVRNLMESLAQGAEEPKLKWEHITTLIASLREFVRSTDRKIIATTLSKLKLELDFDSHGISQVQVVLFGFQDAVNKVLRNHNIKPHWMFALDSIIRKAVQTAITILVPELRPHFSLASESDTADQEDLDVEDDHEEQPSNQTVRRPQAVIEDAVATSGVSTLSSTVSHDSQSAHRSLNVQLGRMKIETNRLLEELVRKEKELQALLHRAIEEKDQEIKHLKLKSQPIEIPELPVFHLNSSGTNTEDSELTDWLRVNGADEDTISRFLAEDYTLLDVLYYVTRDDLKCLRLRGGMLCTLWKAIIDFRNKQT
- experimental_protocol: DSF 100 kinase selectivity screen;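 note: compound tested at 20 µM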
- Assay type: binding
- conditions_used: protein MAP3K5; average of three replicates
Cut-off 3 K on dTm: below means Met, at or above means Not met.

Example results:
| compound | classification |
| --- | --- |
| O=C(Nc1cccc(-c2c[nH]c3ncnc(N4CCOCC4)c23)c1)c1cccn(-c2ccc(F)cc2)c1=O | Not met |
| COc1ccc(NC(=O)C2(C(=O)Nc3cccc(-c4c[nH]c5ncnc(N6CCOCC6)c45)c3)CC2)cc1 | Met |
| CC(C)(C)c1cccc(NC(=O)C2(C(=O)Nc3cccc(-c4c[nH]c5ncnc(N6CCOCC6)c45)c3)CC2)c1 | Met |
| CNC(=O)c1cc(Oc2ccc(NC(=O)Nc3cc(C(C)(C)C)nn3-c3ccc4ncccc4c3)c(F)c2)ccn1 [Rebastinib, reference compound] | Met |

Turning now to a further record.
In: Below 3 K on dTm? Entry CCNc1nc(Nc2cc(F)c(C(=O)N3CCOCC3)cc2OC)ncc1C(F)(F)F
Out: Not met

* * *

- tested_system: ~100 representative kinases (Homo sapiens, UniProt Q5VT25)
- Construct: Recombinant protein kinase domains with a concentration of 2 μM
- Sequence (Q5VT25 whole entry, the tested form may be a part): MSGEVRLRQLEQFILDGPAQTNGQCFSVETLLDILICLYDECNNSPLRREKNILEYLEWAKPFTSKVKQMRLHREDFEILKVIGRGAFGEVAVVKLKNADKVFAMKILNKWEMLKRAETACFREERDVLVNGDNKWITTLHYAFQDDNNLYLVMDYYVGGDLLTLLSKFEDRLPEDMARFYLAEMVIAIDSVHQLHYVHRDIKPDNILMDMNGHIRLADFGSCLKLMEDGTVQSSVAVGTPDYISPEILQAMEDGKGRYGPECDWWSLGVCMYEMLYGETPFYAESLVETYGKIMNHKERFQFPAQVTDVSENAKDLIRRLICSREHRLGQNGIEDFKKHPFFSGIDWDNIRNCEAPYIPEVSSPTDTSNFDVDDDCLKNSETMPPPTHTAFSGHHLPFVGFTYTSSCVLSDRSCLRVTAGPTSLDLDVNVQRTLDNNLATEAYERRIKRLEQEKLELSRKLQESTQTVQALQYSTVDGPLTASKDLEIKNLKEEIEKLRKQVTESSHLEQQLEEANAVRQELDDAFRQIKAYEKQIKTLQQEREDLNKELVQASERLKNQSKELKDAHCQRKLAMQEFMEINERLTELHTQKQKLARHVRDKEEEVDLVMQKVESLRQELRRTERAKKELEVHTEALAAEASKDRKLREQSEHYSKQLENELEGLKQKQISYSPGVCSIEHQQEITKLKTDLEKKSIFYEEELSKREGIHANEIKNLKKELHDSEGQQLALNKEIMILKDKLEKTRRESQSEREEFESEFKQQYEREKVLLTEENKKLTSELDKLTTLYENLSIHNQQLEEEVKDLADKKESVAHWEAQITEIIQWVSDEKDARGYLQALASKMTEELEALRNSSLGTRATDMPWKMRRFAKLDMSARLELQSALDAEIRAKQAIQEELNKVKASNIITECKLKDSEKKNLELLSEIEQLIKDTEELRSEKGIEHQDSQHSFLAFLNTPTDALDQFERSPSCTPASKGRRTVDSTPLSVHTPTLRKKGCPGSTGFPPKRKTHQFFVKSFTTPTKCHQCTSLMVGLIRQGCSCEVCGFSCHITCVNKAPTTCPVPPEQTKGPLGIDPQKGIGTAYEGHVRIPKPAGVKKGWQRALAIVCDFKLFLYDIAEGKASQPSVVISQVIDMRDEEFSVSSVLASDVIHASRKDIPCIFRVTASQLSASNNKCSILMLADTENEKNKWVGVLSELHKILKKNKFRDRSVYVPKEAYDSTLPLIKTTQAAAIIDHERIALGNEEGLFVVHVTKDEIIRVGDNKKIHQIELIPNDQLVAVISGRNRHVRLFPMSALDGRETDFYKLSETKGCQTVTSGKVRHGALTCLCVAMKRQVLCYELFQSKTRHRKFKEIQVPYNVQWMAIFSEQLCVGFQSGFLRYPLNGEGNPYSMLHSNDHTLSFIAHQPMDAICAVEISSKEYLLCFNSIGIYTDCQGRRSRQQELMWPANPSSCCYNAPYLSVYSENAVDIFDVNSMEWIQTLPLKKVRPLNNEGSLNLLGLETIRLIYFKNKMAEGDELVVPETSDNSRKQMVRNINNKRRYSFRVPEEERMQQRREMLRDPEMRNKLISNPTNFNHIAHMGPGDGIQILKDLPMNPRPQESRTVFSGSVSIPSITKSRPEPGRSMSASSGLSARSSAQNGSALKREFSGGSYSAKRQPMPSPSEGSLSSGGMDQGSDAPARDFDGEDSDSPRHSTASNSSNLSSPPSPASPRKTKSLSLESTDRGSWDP
- experimental_protocol: DSF 100 kinase selectivity screen;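 note: compound tested at 20 µM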
- Assay type: binding
- conditions_used: Protein CDC42BPA; average of three replicates
- Experimental: Recombinant protein kinase domains with a concentration of 2 μM were mixed with a 20 μM compound solution in dimethyl sulfoxide (DMSO), 20 mM Hepes (pH 7.5), and 500 mM NaCl. SYPRO Orange (5000×, Invitrogen) was added as a fluorescence probe (1μl/ml). Subsequently, temperature-dependent protein unfolding profiles were measured using the QuantStudio 5 realtime PCR machine (Thermo Fisher Scientific, Waltham, MA, USA). […] The temperature was raised with a step rate of 3°C/min. […]
Would you mind sorting the entries by dTm according to these classes? Low (below -1 K), Medium (-1 K to below -0.7 K), High (-0.7 K or more)

Would you please look over these solved cases?
| molecule | tested_system | classification |
| --- | --- | --- |
| COc1cc(NC(=O)C2(C(=O)Nc3cccc(-c4c[nH]c5ncnc(N6CCOCC6)c45)c3)CC2)ccc1F [Compound 21] | ~100 representative kinases (Homo sapiens, UniProt Q5VT25) | Low |
| O=C(Nc1cc(F)cc(Br)c1)C1(C(=O)Nc2cccc(-c3c[nH]c4ncnc(N5CCOCC5)c34)c2)CC1 [Compound 27] | ~100 representative kinases (Homo sapiens, UniProt Q5VT25) | High |
| CC(=O)N1CCN(c2nc(Cl)nc3[nH]cc(-c4cccc(NC(=O)Nc5cc(C(C)(C)C)nn5-c5ccc(C)cc5)c4)c23)CC1 [Compound 31] | ~100 representative kinases (Homo sapiens, UniProt Q5VT25) | High |

In: Hi there! Could you help me figure out the category for C[C@@H]1CN(c2cc(-c3n[nH]c4ccc(OC5(C)CC5)cc34)ncn2)C[C@H](C)O1 [MLi2] please?
Out: Medium

In: Form: Item = O=C(Nc1cccc(-c2c[nH]c3ncnc(N4CCOCC4)c23)c1)C1(C(=O)Nc2cccc3c2CCC3)CC1 [Compound 11] ; Class = ?
Out: Low

In: Pick a category. Item: CN[C@@H]1C[C@H]2O[C@@](C)([C@@H]1OC)n1c3ccccc3c3c4c(c5c6ccccc6n2c5c31)C(=O)NC4 [Staurosporine]
Out: High

In: Where would Cc1ccc(C(=O)Nc2ccc(CN3CCN(C)CC3)c(C(F)(F)F)c2)cc1C#Cc1cnc2[nH]ncc2c1 [GZD-824, reference compound] land among the classes by reported dTm?
Out: Low

In: Returns: class label. Input: CC(C)(C)c1cc(NC(=O)Nc2cccc(-c3c[nH]c4ncnc(N5CCOCC5)c34)c2)n(-c2ccc3ncccc3c2)n1 [Compound 28]
Out: High

In: Class (by measured dTm) for CNC(=O)c1cc(Oc2ccc(NC(=O)Nc3cc(C(C)(C)C)nn3-c3ccc4ncccc4c3)c(F)c2)ccn1 [Rebastinib, reference compound]
Out: High

In: Bin this entry: Cn1cc(-c2c[nH]c3ncnc(N4CCOCC4)c23)cc1C#N [PFE-360]
Out: Low

In: Which category does the recorded dTm put O=C(Nc1cccc(-c2c[nH]c3ncnc(N4CCOCC4)c23)c1)c1cccn(-c2ccc(F)cc2)c1=O [Compound 4] in?
Out: Medium

In: # bin label for O=C(Nc1cccc(-c2c[nH]c3ncnc(N4CCOCC4)c23)c1)C1(C(=O)Nc2ccc(F)cc2F)CC1 [Compound 23]
Out: Low

In: # classify by dTm band: Cc1cc(NC(=O)C2(C(=O)Nc3cccc(-c4c[nH]c5ncnc(N6CCOCC6)c45)c3)CC2)ccc1F [Compound 20]
Out: Low
